Values compiled from ChEMBL document CHEMBL5325403.

# Tested on: Escherichia coli
# experimental protocol: Antibacterial activity against Escherichia coli ATCC 25922 assessed as inhibition of bacterial growth by continuous dilution method
# Format: functional
measure: log10 MIC (log10 of the value in µg/mL)
The base-10 logarithm of MIC, taken with MIC in µg/mL, is what appears here.

Consider the following illustrative entries.
1. CC(=O)Nc1ccc(S(=O)(=O)/C(=C\c2ccc(F)cc2)C(=O)c2nccs2)cc1 = 1.81
2. CC(=O)Nc1ccc(S(=O)(=O)C/C(=N/Nc2ccccc2)c2nccs2)cc1 = 2.41

So, CC(=O)Nc1ccc(S(=O)(=O)C/C(=N/NC(=O)c2ccccn2)c2nccs2)cc1 ? Its log10 MIC was 1.81

So, Nc1ccc(S(=O)(=O)C/C(=N/O)c2nccs2)cc1 ? Its log10 MIC was 1.20

So, CCCCCCCCO/N=C(/CS(=O)(=O)c1ccc(N)cc1)c1nccs1 ? Its log10 MIC was 1.51

So, CCCCO/N=C(/CS(=O)(=O)c1ccc(NC(C)=O)cc1)c1nccs1 ? Its log10 MIC was 1.20

###

# experimental protocol: Cytotoxicity against human FHC cells assessed as cell viability rate at 20 ug/ml
# Type: toxicity, cell-based
# test context: at 20 µg/mL, read-out: Activity
measure: viability at 20 ug/ml (%)
Express your answer in %, writing the number without its unit.

So, CC(=O)Nc1ccc(S(=O)(=O)C/C(=N/NC(=O)c2ccccn2)c2nccs2)cc1 ? Its viability at 20 ug/ml was 45

###

# experimental protocol: Hemolytic activity in human RBC assessed as hemolysis at 512 times of MIC measured after 1 hr
# Format: toxicity, cell-based, Erythrocyte
# test context: red blood cells (erythrocytes), read-out: Activity
measure: hemolysis at 1 h, 512 times of MIC

So, CC(=O)Nc1ccc(S(=O)(=O)C/C(=N/NC(=O)c2ccccn2)c2nccs2)cc1 ? Its hemolysis at 1 h, 512 times of MIC was < 3%

###

Entries annotated with measured MIC
# Tested on: Escherichia coli
# experimental protocol: Antibacterial activity against Escherichia coli ATCC 25922 assessed as inhibition of bacterial growth by continuous dilution method
# Format: functional
Express your answer in µg/mL, writing the number without its unit.

Reading of MIC for CC(=O)Nc1ccc(S(=O)(=O)/C(=C\c2ccc(C(F)(F)F)cc2)C(=O)c2nccs2)cc1 with Escherichia coli: 256

Reading of MIC for CC(=O)Nc1ccc(S(=O)(=O)C/C(=N/OCc2ccc(Cl)cc2Cl)c2nccs2)cc1 with Escherichia coli: 16

Reading of MIC for CC(=O)Nc1ccc(S(=O)(=O)C/C(=N/Nc2ccc(Cl)cc2)c2nccs2)cc1 with Escherichia coli: 128

Reading of MIC for CCCCCCCCO/N=C(/CS(=O)(=O)c1ccc(NC(C)=O)cc1)c1nccs1 with Escherichia coli: 16

Reading of MIC for CC(=O)Nc1ccc(S(=O)(=O)C/C(=N/Nc2ccc(C(=O)O)cc2)c2nccs2)cc1 with Escherichia coli: 32

###

# Tested on: Escherichia coli
# experimental protocol: Antibacterial activity against Escherichia coli assessed as inhibition of bacterial growth by continuous dilution method
# Assay type: functional
Kindly apply the following: True if MIC is less than 30 µg/mL, False in every other case.

These recorded examples may help you get a feel for the data.
1) CC(=O)Nc1ccc(S(=O)(=O)/C(=C\c2ccc(F)cc2F)C(=O)c2nccs2)cc1 = False
2) C#CCO/N=C(/CS(=O)(=O)c1ccc(N)cc1)c1nccs1 = False
3) CCCCCCCCO/N=C(/CS(=O)(=O)c1ccc(N)cc1)c1nccs1 = False

IN: State whether 30 µg/mL exceeds MIC recorded for Nc1ccc(S(=O)(=O)Nc2nccs2)cc1 .
OUT: False

IN: State whether 30 µg/mL exceeds MIC recorded for CC(=O)Nc1ccc(S(=O)(=O)C/C(=N/NC(=O)c2ccccc2)c2nccs2)cc1 .
OUT: True

IN: State whether 30 µg/mL exceeds MIC recorded for Nc1ccc(S(=O)(=O)C/C(=N/OCc2ccc(Cl)cc2)c2nccs2)cc1 .
OUT: True

IN: State whether 30 µg/mL exceeds MIC recorded for CC(=O)Nc1ccc(S(=O)(=O)/C(=C\c2ccccc2Cl)C(=O)c2nccs2)cc1 .
OUT: True

IN: State whether 30 µg/mL exceeds MIC recorded for CC(=O)Nc1ccc(S(=O)(=O)C/C(=N/NC(=O)c2cccnc2)c2nccs2)cc1 .
OUT: False
